STUDY SYSTEM: Factor X (FX), P00742
Sequence (P00742 whole entry, looked up): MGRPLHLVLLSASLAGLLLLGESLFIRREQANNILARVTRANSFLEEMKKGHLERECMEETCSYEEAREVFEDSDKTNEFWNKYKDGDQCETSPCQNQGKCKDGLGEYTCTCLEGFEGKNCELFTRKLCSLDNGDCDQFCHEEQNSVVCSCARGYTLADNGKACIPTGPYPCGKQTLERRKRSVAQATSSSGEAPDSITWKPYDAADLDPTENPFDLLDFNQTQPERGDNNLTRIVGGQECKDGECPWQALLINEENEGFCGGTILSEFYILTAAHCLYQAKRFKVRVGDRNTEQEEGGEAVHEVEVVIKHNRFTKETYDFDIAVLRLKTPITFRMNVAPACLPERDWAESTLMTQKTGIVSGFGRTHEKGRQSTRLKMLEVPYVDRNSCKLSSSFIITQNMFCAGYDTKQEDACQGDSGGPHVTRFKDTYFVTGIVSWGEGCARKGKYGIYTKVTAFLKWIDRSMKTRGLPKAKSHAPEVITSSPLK
MEASURE NAME: % of WT kcat/KM (%)
Write the number in % without appending the unit.

{"PROTEIN": "FIXa-K293A/R338A/R403A (protein) chain 1: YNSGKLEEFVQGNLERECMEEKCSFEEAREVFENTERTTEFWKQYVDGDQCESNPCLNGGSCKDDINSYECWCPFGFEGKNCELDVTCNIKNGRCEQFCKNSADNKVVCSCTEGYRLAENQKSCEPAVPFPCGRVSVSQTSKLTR chain 2: VVGGEDAKPGQFPWQVVLNGKVDAFCGGSIVNEKWIVTAAHCVETGVKITVVAGEHNIEETEHTEQKRNVIRIIPHHNYNAAINKYNHDIALLELDEPLVLNSYVTPICIADAEYTNIFLKFGSGYVSGWGRVFHKGRSALVLQYLRVPLVDRATCLASTKFTIYNNMFCAGFHEGGRDSCQGDSGGPHVTEVEGTSFLTGIISWGEECAMKGKYGIYTKVSAYVNWIKEKTKLT", "MEASURE NAME": "% of WT kcat/KM", "REPORTED RESULT": 55}

# input for lookup
In one line, give reported % of WT kcat/KM of the entry FIXa-K247N/N249S/R318Y/T343R/R403E/E410N (protein) chain 1: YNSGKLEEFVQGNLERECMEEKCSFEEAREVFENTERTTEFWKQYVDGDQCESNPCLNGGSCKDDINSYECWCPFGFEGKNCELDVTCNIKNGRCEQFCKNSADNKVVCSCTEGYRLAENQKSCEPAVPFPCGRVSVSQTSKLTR chain 2: VVGGEDAKPGQFPWQVVLNGKVDAFCGGSIVNEKWIVTAAHCVETGVKITVVAGEHNIEETEHTEQNRSVIRIIPHHNYNAAINKYNHDIALLELDEPLVLNSYVTPICIADKEYTNIFLKFGSGYVSGWGRVFHKGYSALVLQYLRVPLVDRATCLRSTKFRIYNNMFCAGFHEGGRDSCQGDSGGPHVTEVEGTSFLTGIISWGEECAMKGKYGIYTKVSEYVNWIKNKTKLT .
279
